Biological target: Estrogen receptor (Homo sapiens) (UniProt Q92731+P03372)
Sequence (Q92731 whole entry): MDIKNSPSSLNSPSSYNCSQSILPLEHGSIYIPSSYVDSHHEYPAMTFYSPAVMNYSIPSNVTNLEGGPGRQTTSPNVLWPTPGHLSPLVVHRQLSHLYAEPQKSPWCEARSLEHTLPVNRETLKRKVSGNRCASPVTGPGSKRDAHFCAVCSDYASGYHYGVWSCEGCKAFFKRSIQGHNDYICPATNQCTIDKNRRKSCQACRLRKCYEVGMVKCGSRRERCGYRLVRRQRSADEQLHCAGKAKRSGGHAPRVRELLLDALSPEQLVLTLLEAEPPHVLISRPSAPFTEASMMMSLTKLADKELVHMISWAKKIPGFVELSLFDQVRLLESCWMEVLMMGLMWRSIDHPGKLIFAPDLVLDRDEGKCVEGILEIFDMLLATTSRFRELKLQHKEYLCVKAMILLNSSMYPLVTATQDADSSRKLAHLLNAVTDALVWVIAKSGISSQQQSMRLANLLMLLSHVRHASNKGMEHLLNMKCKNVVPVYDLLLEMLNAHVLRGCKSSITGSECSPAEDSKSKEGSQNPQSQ
Assay: Selectivity ratio as relative binding affinity for estrogen receptor alpha and beta
Format: protein assay
Reported Ratio by item:
Output spec: single numeric token, no unit.

Worked set:
- smiles_representation: "Oc1ccc(-c2nn(-c3ccc(O)cc3)c3c2CCCCC3)cc1"
  Ratio: 4
- smiles_representation: "CCCc1c(-c2ccc(O)cc2)nn(-c2ccc(O)cc2)c1C1CCCC1"
  Ratio: 6
- smiles_representation: "CCc1c(-c2ccc(O)cc2)nn(-c2ccc(O)cc2)c1C1CCCC1"
  Ratio: 8.9

Data request: Return Ratio for the following compound: `Oc1ccc(-c2nn(-c3ccc(O)cc3)c3c2CCCC3)cc1`
Data returned: 13

Data request: Return Ratio for the following compound: `CCCc1c(-c2ccc(O)cc2)nn(-c2ccc(O)cc2)c1C1CCCCC1`
Data returned: 9.4

Data request: Return Ratio for the following compound: `CCCc1c(-c2ccc(O)cc2)nn(-c2ccc(O)cc2)c1-c1ccc(O)cc1`
Data returned: 410

====

Target: UniProt:Q92731
Assay: Relative binding affinity (RBA) for human Estrogen receptor beta compared to estradiol
Reported Affinity by item:
Output spec: single numeric token, no unit.

- smiles_representation: "CCCc1c(-c2ccc(O)cc2)nn(-c2ccc(O)cc2)c1C1CCCC1"
  measured_result: 0.6
- smiles_representation: "CCc1c(-c2ccc(O)cc2)nn(-c2ccc(O)cc2)c1C1CCCC1"
  measured_result: 0.23
- smiles_representation: "Oc1ccc(-c2nn(-c3ccc(O)cc3)c3c2CCCCC3)cc1"
  measured_result: 0.047
- smiles_representation: "CCCc1c(-c2ccc(O)cc2)nn(C2CCCC2)c1-c1ccc(O)cc1"
  measured_result: 71
- smiles_representation: "CCc1c(-c2ccc(O)cc2)nn(-c2ccc(O)cc2)c1C1CCCCC1"
  measured_result: 0.14
- smiles_representation: "CCCc1c(-c2ccc(O)cc2)nn(-c2ccc(O)cc2)c1C1CCCCC1"
  measured_result: 0.11
- smiles_representation: "CCCc1c(-c2ccc(O)cc2)nn(-c2ccc(O)cc2)c1-c1ccc(O)cc1"
  measured_result: 0.12
- smiles_representation: "CCCc1c(-c2ccc(O)cc2)nn(C2CCCCC2)c1-c1ccc(O)cc1"
  measured_result: 13

Then there is this molecule:
Data request: Return Affinity for the following molecule: `Oc1ccc(-c2nn(-c3ccc(O)cc3)c3c2CCCC3)cc1`
Data returned: 0.042

The measured values listed here are drawn from ChEMBL document CHEMBL1135564.
